# measured-target: Endothelial lipase (EL) (Homo sapiens (Human), UniProt Q9Y5X9)
# Sequence (Q9Y5X9 21-500): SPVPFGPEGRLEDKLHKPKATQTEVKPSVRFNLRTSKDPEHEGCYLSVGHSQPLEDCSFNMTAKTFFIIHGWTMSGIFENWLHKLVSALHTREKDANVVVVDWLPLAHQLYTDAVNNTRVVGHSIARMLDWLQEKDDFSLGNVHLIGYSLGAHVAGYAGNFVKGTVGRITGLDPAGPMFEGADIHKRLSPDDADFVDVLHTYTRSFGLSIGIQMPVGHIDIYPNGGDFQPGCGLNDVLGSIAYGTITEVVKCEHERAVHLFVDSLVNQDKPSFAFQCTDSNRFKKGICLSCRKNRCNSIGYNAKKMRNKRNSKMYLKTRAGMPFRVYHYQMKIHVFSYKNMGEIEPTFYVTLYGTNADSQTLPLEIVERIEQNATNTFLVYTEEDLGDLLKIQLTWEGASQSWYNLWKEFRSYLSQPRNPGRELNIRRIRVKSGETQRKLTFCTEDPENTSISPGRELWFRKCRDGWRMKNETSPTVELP
# method: Endothelial lipase (EL) enzymatic assay with fluorescent substrate A10070 in DMPG vesicles
# Assay type: biochemical
# conditions: EL from conditioned media of HT-1080 cells; 30 min preincubation at 37° C.
Below, each of the compounds is paired with its reported IC50 value.
Provide the reading as a plain figure in µM.

[[record]]
compound = "O=C(CNC(=O)C(c1nc2cc(F)c(-c3cccn(Cc4ccccc4)c3=O)cc2s1)S(=O)(=O)CCC(F)(F)F)NC1CC1 (stereo not shown)"
val = 0.268


Query string: # get_value(readout='IC50', item= O=C(CNC(=O)C(c1nc2ccc(-c3ccc(F)nc3)cc2s1)S(=O)(=O)Cc1ccccc1)NC1CC1 (stereo not shown) )
Result string: 0.026

Query string: # get_value(readout='IC50', item= COC(=O)Nc1ccc(-c2cc3sc(C(C(=O)NCC(=O)NC4CC4)S(C)(=O)=O)nc3cc2F)cc1OC (stereo not shown) )
Result string: 0.0045

Query string: # get_value(readout='IC50', item= COCCS(=O)(=O)C(C(=O)NCC(=O)NC1CC1)c1nc2cc(F)c(-c3ccc(-c4ncon4)cc3)cc2s1 (stereo not shown) )
Result string: 0.0021
